Sourced from patent US20210388087A1

tested-system: T1, Human CD137 ECD (human)
T1 construct: entry includes C-terminal His-tag and biotin acceptor peptide; also called human CD137 extracellular domain; 4-1BB
T1 sequence (chain, as listed by the source limits assumed): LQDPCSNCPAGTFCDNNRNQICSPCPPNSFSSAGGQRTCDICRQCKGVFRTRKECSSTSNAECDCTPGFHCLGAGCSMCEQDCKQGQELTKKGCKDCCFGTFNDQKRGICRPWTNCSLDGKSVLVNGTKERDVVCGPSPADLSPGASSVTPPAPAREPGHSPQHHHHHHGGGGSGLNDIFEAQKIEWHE
protocol: Biacore SPR, vs parent H183/L072
assay-endpoint: fold change of affinity (fold)
One number for each entry, in fold.

binder	assay-endpoint	result
H183/L072 VL R29L (antibody, name in Kabat numbering, V domains shown, Dual-Ig) VH: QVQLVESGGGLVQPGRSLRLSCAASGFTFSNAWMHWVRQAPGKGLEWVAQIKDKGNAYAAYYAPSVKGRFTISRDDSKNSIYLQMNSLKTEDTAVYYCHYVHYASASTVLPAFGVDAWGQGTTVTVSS VL: DIVMTQSPLSLPVTPGEPASISCQASQELVHMNLNTYLHWYQQKPGQAPRLLIYKVSNRFPGVPDRFSGSGSGTDFTLKISRVEAEDVGVYYCAQGTSVPFTFGQGTKLEIK	fold change of affinity	0.9

Consider the record given below.
Input: Which fold change of affinity reading was recorded for the binder H183/L072 VL G91A (antibody, name in Kabat numbering, V domains shown, Dual-Ig) VH: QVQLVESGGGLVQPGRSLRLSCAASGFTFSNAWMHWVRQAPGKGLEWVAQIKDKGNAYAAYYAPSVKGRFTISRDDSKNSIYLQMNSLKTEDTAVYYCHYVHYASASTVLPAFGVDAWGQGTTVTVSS VL: DIVMTQSPLSLPVTPGEPASISCQASQELVHMNRNTYLHWYQQKPGQAPRLLIYKVSNRFPGVPDRFSGSGSGTDFTLKISRVEAEDVGVYYCAQATSVPFTFGQGTKLEIK ?
Output: 0.4
